# Tested on: MCF-7 (human breast adenocarcinoma cell line)
# measurement-protocol: MTT cytotoxicity assay, MCF-7 cells
# Type: cell-based
# assay-conditions: no copper added
quantity-kind: SI MCF-7 (ratio of IC50 of NHDF-Neo to IC50 of cancer cells)

{"compound": "C=C(C)[C@@H]1CC[C@]2(COC(=O)CCC(=O)OCc3cn(CCO[C@@H]4O[C@H](COC(C)=O)[C@@H](OC(C)=O)[C@H](OC(C)=O)[C@H]4OC(C)=O)nn3)CC[C@]3(C)C(CCC4[C@@]5(C)CC[C@H](O)C(C)(C)C5CC[C@]43C)C12 (some centres unmarked)", "data-value": ">1.5"}
{"compound": "C=C(C)[C@@H]1CC[C@]2(COC(=O)CCC(=O)OCc3cn(CCO[C@@H]4O[C@H](COC(C)=O)[C@@H](OC(C)=O)[C@H](OC(C)=O)[C@H]4OC(C)=O)nn3)CC[C@]3(C)C(CCC4[C@@]5(C)CC[C@H](OC(C)=O)C(C)(C)C5CC[C@]43C)C12 (some centres unmarked)", "data-value": ">1.4"}
{"compound": "C=C(C)[C@@H]1CC[C@]2(COC(=O)CCC(=O)OCc3cn(CCO)nn3)CC[C@]3(C)C(CCC4[C@@]5(C)CC[C@H](OC(C)=O)C(C)(C)C5CC[C@]43C)C12 (some centres unmarked)", "data-value": ">1.4"}
{"compound": "C=C(C)[C@@H]1CC[C@]2(COC(=O)CCC(=O)OCc3cn([C@@H]4O[C@H](COCc5ccccc5)[C@@H](OCc5ccccc5)[C@H](OCc5ccccc5)[C@H]4OCc4ccccc4)nn3)CC[C@]3(C)C(CCC4[C@@]5(C)CC[C@H](OC(C)=O)C(C)(C)C5CC[C@]43C)C12 (some centres unmarked)", "data-value": ">1.2"}
{"compound": "C=C(C)[C@@H]1CC[C@]2(COC(=O)CCC(=O)OCc3cn(CCCO[C@@H]4O[C@H](COC(C)=O)[C@@H](OC(C)=O)[C@H](OC(C)=O)[C@H]4OC(C)=O)nn3)CC[C@]3(C)C(CCC4[C@@]5(C)CC[C@H](O)C(C)(C)C5CC[C@]43C)C12 (some centres unmarked)", "data-value": ">1.2"}
{"compound": "C=C(C)[C@@H]1CC[C@]2(CO)CC[C@]3(C)[C@H](CC[C@@H]4[C@@]5(C)CC[C@H](O)C(C)(C)[C@@H]5CC[C@]43C)[C@@H]12", "data-value": 1.9}
{"compound": "C=C(C)[C@@H]1CC[C@]2(COC(=O)CCC(=O)OCc3cn(C[C@H]4O[C@@H](OC(C)=O)[C@H](OC(C)=O)[C@@H](OC(C)=O)[C@H]4OC(C)=O)nn3)CC[C@]3(C)C(CCC4[C@@]5(C)CC[C@H](OC(C)=O)C(C)(C)C5CC[C@]43C)C12 (some centres unmarked)", "data-value": ">1.3"}
{"compound": "C=C(C)[C@@H]1CC[C@]2(COC(=O)CCC(=O)OCc3cn([C@@H]4O[C@H](COC(C)=O)[C@@H](OC(C)=O)[C@H](OC(C)=O)[C@H]4OC(C)=O)nn3)CC[C@]3(C)C(CCC4[C@@]5(C)CC[C@H](O)C(C)(C)C5CC[C@]43C)C12 (some centres unmarked)", "data-value": ">1.6"}

----------
# Tested on: MCF-7 (human breast adenocarcinoma cell line)
# measurement-protocol: MTT cytotoxicity assay, MCF-7 cells
# Assay type: cell-based
# assay-conditions: no copper added
quantity-kind: SI MCF-7 (ratio of IC50 of NHDF-Neo to IC50 of cancer cells)

{"molecule": "C=C(C)[C@@H]1CC[C@]2(COC(=O)CCC(=O)OCc3cn([C@@H]4O[C@H](COCc5ccccc5)[C@H](OCc5ccccc5)[C@H](OCc5ccccc5)[C@H]4OCc4ccccc4)nn3)CC[C@]3(C)C(CCC4[C@@]5(C)CC[C@H](OC(C)=O)C(C)(C)C5CC[C@]43C)C12 (stereo partly shown)", "data-value": ">1.1"}
{"molecule": "C=C(C)[C@@H]1CC[C@]2(COC(=O)CCC(=O)OCc3cn(CCCO[C@@H]4O[C@H](COC(C)=O)[C@@H](OC(C)=O)[C@H](OC(C)=O)[C@H]4OC(C)=O)nn3)CC[C@]3(C)C(CCC4[C@@]5(C)CC[C@H](OC(C)=O)C(C)(C)C5CC[C@]43C)C12 (stereo partly shown)", "data-value": ">1.3"}
{"molecule": "C=C(C)[C@@H]1CC[C@]2(COC(=O)CCC(=O)OCc3cn([C@@H]4O[C@H](COC(C)=O)[C@@H](OC(C)=O)[C@H](OC(C)=O)[C@H]4OC(C)=O)nn3)CC[C@]3(C)C(CCC4[C@@]5(C)CC[C@H](OC(C)=O)C(C)(C)C5CC[C@]43C)C12 (stereo partly shown)", "data-value": ">1.2"}
{"molecule": "C=C(C)[C@@H]1CC[C@]2(COC(=O)CCC(=O)OCc3cn([C@@H]4O[C@H](COC(C)=O)[C@H](OC(C)=O)[C@H](OC(C)=O)[C@H]4OC(C)=O)nn3)CC[C@]3(C)C(CCC4[C@@]5(C)CC[C@H](OC(C)=O)C(C)(C)C5CC[C@]43C)C12 (stereo partly shown)", "data-value": ">1.6"}

----------
Property: pIC50; scope: individual molecules
# System: MCF-7 (human breast adenocarcinoma cell line)
# measurement-protocol: MTT cytotoxicity assay, MCF-7 cells
# Format: cell-based
# assay-conditions: Homo sapiens, MCF7, 72 h, MTT, incubation 72 h, no copper added
pIC50: −log10 of the molar value.
quantity-kind: pIC50

{"molecule": "C=C(C)[C@@H]1CC[C@]2(COC(=O)CCC(=O)OCc3cn(CCO)nn3)CC[C@]3(C)C(CCC4[C@@]5(C)CC[C@H](OC(C)=O)C(C)(C)C5CC[C@]43C)C12 (some centres unmarked)", "data-value": 3.83}
{"molecule": "C=C(C)[C@@H]1CC[C@]2(COC(=O)CCC(=O)OCc3cn([C@@H]4O[C@H](COCc5ccccc5)[C@@H](OCc5ccccc5)[C@H](OCc5ccccc5)[C@H]4OCc4ccccc4)nn3)CC[C@]3(C)C(CCC4[C@@]5(C)CC[C@H](OC(C)=O)C(C)(C)C5CC[C@]43C)C12 (some centres unmarked)", "data-value": 3.78}
{"molecule": "C=C(C)[C@@H]1CC[C@]2(COC(=O)CCC(=O)OCc3cn([C@@H]4O[C@H](COC(C)=O)[C@@H](OC(C)=O)[C@H](OC(C)=O)[C@H]4OC(C)=O)nn3)CC[C@]3(C)C(CCC4[C@@]5(C)CC[C@H](O)C(C)(C)C5CC[C@]43C)C12 (some centres unmarked)", "data-value": 3.89}
{"molecule": "C=C(C)[C@@H]1CC[C@]2(COC(=O)CCC(=O)OCc3cn(CCCO[C@@H]4O[C@H](COC(C)=O)[C@@H](OC(C)=O)[C@H](OC(C)=O)[C@H]4OC(C)=O)nn3)CC[C@]3(C)C(CCC4[C@@]5(C)CC[C@H](OC(C)=O)C(C)(C)C5CC[C@]43C)C12 (some centres unmarked)", "data-value": 3.82}
{"molecule": "C=C(C)[C@@H]1CC[C@]2(COC(=O)CCC(=O)OCc3cn([C@@H]4O[C@H](COCc5ccccc5)[C@H](OCc5ccccc5)[C@H](OCc5ccccc5)[C@H]4OCc4ccccc4)nn3)CC[C@]3(C)C(CCC4[C@@]5(C)CC[C@H](OC(C)=O)C(C)(C)C5CC[C@]43C)C12 (some centres unmarked)", "data-value": 3.73}

----------
# Tested on: MCF-7 (human breast adenocarcinoma cell line)
# measurement-protocol: MTT cytotoxicity assay, MCF-7 cells
# Format: cell-based
# assay-conditions: Homo sapiens, MCF7, 72 h, MTT, incubation 72 h, no copper added

{"compound": "C=C(C)[C@@H]1CC[C@]2(COC(=O)CCC(=O)OCc3cn(CCO[C@@H]4O[C@H](COC(C)=O)[C@@H](OC(C)=O)[C@H](OC(C)=O)[C@H]4OC(C)=O)nn3)CC[C@]3(C)C(CCC4[C@@]5(C)CC[C@H](O)C(C)(C)C5CC[C@]43C)C12 (some centres unmarked) [7c]", "assayed-target": "MCF-7 (human breast adenocarcinoma cell line)", "unit-label": "µM", "IC50": 135}
{"compound": "C=C(C)[C@@H]1CC[C@]2(COC(=O)CCC(=O)OCc3cn(C[C@H]4O[C@@H](OC(C)=O)[C@H](OC(C)=O)[C@@H](OC(C)=O)[C@H]4OC(C)=O)nn3)CC[C@]3(C)C(CCC4[C@@]5(C)CC[C@H](OC(C)=O)C(C)(C)C5CC[C@]43C)C12 (some centres unmarked) [8a]", "assayed-target": "MCF-7 (human breast adenocarcinoma cell line)", "unit-label": "µM", "IC50": 153}
{"compound": "COc1cccc2c1C(=O)c1c(O)c3c(c(O)c1C2=O)C[C@@](O)(C(=O)CO)C[C@@H]3O[C@H]1C[C@H](N)[C@H](O)[C@H](C)O1 [Doxorubicin, doxorubicin, reference compound]", "assayed-target": "MCF-7 (human breast adenocarcinoma cell line)", "unit-label": "µM", "IC50": 0.29}
{"compound": "C=C(C)[C@@H]1CC[C@]2(COC(=O)CCC(=O)OCc3cn([C@@H]4O[C@H](COC(C)=O)[C@H](OC(C)=O)[C@H](OC(C)=O)[C@H]4OC(C)=O)nn3)CC[C@]3(C)C(CCC4[C@@]5(C)CC[C@H](OC(C)=O)C(C)(C)C5CC[C@]43C)C12 (some centres unmarked) [6a]", "assayed-target": "MCF-7 (human breast adenocarcinoma cell line)", "unit-label": "µM", "IC50": 123}
{"compound": "C=C(C)[C@@H]1CC[C@]2(COC(=O)CCC(=O)OCc3cn(CCCO[C@@H]4O[C@H](COC(C)=O)[C@@H](OC(C)=O)[C@H](OC(C)=O)[C@H]4OC(C)=O)nn3)CC[C@]3(C)C(CCC4[C@@]5(C)CC[C@H](O)C(C)(C)C5CC[C@]43C)C12 (some centres unmarked) [7d]", "assayed-target": "MCF-7 (human breast adenocarcinoma cell line)", "unit-label": "µM", "IC50": 165}
{"compound": "C=C(C)[C@@H]1CC[C@]2(CO)CC[C@]3(C)[C@H](CC[C@@H]4[C@@]5(C)CC[C@H](O)C(C)(C)[C@@H]5CC[C@]43C)[C@@H]12 [BN, 3-Lup-20(29)-ene-3β,28-diol]", "assayed-target": "MCF-7 (human breast adenocarcinoma cell line)", "unit-label": "µM", "IC50": 17.9}
{"compound": "C=C(C)[C@@H]1CC[C@]2(COC(=O)CCC(=O)OCc3cn([C@@H]4O[C@H](COC(C)=O)[C@@H](OC(C)=O)[C@H](OC(C)=O)[C@H]4OC(C)=O)nn3)CC[C@]3(C)C(CCC4[C@@]5(C)CC[C@H](OC(C)=O)C(C)(C)C5CC[C@]43C)C12 (some centres unmarked) [5a]", "assayed-target": "MCF-7 (human breast adenocarcinoma cell line)", "unit-label": "µM", "IC50": 163}
{"compound": "C=C(C)[C@@H]1CC[C@]2(COC(=O)CCC(=O)OCc3cn(CCO[C@@H]4O[C@H](COC(C)=O)[C@@H](OC(C)=O)[C@H](OC(C)=O)[C@H]4OC(C)=O)nn3)CC[C@]3(C)C(CCC4[C@@]5(C)CC[C@H](OC(C)=O)C(C)(C)C5CC[C@]43C)C12 (some centres unmarked) [7a]", "assayed-target": "MCF-7 (human breast adenocarcinoma cell line)", "unit-label": "µM", "IC50": 144}

Source of measurements: paper PMC12153776
